Entry source: patent EP0244803B1

system: spontaneously hypertensive rats (SHR's); experiment: Antihypertensive effect: blood pressure monitored continuously in SHR's after ip administration; type: in vivo; conditions: 50 mg/kg, percent change printed in parentheses
# Max Change MBP (percent, in parentheses) per record follows
Supply the numeric figure in %, leaving out any unit text.

Take a look at these entries with their results.
S=c1[nH]ccn1Cc1cccs1
18
Cc1ccc(Cn2cc[nH]c2=S)s1
10

Input line: Please look up its Max Change MBP (percent, in parentheses): S=c1[nH]ccn1Cc1ccsc1
Output line: 12

Input line: Recorded Max Change MBP (percent, in parentheses) of S=c1[nH]ccn1Cc1ccc(Cl)s1 , please.
Output line: 13
